test system: 786-0 renal; assay: NCI tumour cell line growth inhibition, 48 h
Use 30 µM as the dividing line for TGI, with the line itself on the label 1 side and lower values as label 0.

{"columns": ["COMPOUND", "CLASS ASSIGNMENT"],
 "data": [
  ["O=C(Nc1ccc(-n2ccc3c(NC(=O)c4ccccc4)nccc32)cc1)Nc1ccc(Cl)c(Cl)c1", "label 0"],
  ["N#Cc1c(N/N=C/c2ccc(Cl)cc2Cl)nc(N)nc1N1CCCC1", "label 1"],
  ["C=CC1C(OC2OC(CO)C(O)C(O)C2O)OC=C(C(=O)OC)C1CC1CC(=O)CC(CCc2ccc(O)cc2)O1 (stereo not given)", "label 1"],
  ["COc1cc(OC)c(/C=C/c2c3ccccc3cc[n+]2C)c(OC)c1", "label 1"],
  ["O=C(O)c1nc2ccc(C(F)(F)F)cc2nc1NCc1ccc(F)cc1", "label 0"],
  ["O=C1C=CC(=O)c2c1ccc1c3ccccc3n(-c3cccc([N+](=O)[O-])c3)c21", "label 0"],
  ["CCOC(=O)C1(C/C=C/CBr)CCc2ccccc2C1=O (stereo not given)", "label 1"],
  ["CCn1sc2ccccc2c1=O", "label 0"],
  ["CCn1c(=O)c2c(=O)c3c4c(oc3oc2c2ccccc21)C(=O)c1ccccc1C4=O", "label 1"]
]}

====

test system: MDA-MB-435; test: NCI tumour cell line growth inhibition, 48 h

{"columns": ["MOLECULE", "UNIT OF MEASUREMENT", "OPERATOR", "TGI"],
 "data": [
  ["Cc1nc(-[n+]2nc(-c3ccncc3)nn2-c2ccccc2)sc1C", "µM", ">", 100],
  ["CC(C)N(C(=O)C1(O)c2ccccc2C=Cc2ccccc21)C(C)C", "µM", ">", 100],
  ["Cc1nn(C(=O)Cc2ccccc2)c2c1C(c1ccc(Cl)cc1)SC(N)=N2 (stereo unspecified)", "µM", ">", 100],
  ["CCN1C(=O)N(CC)C2C1NN=c1s/c(=C3\\C(=O)N(CC(C)(C)C)c4ccccc43)c(=O)n12 (stereo unspecified)", "µM", "=", 7.1],
  ["S=C1SSC2N=CC=CC12 (stereo unspecified)", "µM", "=", 31.8],
  ["CC[C@H]1CN2CCc3cc(OC)c(OC)cc3[C@@H]2C[C@@H]1C[C@H]1NCCc2c1[nH]c1ccc(O)cc21", "µM", "=", 0.261]
]}

====

test system: NCI-H23 lung; experiment: NCI tumour cell line growth inhibition, 48 h

{"columns": ["COMPOUND", "TGI"],
 "data": [
  ["O=C1NC(=O)/C(=C\\c2ccccc2)C2=C1CCCC2", "8.33 µM"],
  ["N#CC1=C(Nc2ccccc2)SC=C(c2ccccc2)NC1=NCc1ccccc1", "> 100 µM"],
  ["OCc1ccn2c1[C@@H](O)CC2", "> 100 µM"],
  ["O=C(/N=C/c1c(O)c2ccccc2oc1=O)Oc1ccccc1", "68.5 µM"],
  ["CC(=O)N(CCc1ccccc1)C(C#N)c1ccccc1 (stereo not given)", "> 100 µM"],
  ["N#CC(OC1OC(COC2OC(CO)C(O)C(O)C2O)C(O)C(O)C1O)c1ccccc1 (stereo not given)", "> 225 µM"],
  ["COc1ccc(O)c(C(=O)c2ccc(C(=O)N[C@H]3CCCNC[C@@H]3NC(=O)c3ccncc3)cc2)c1F", "> 25 µM"],
  ["CN(C)c1ccc(/C=N\\NC(=O)Nc2cccc3ccccc23)cc1", "76 µM"],
  ["CC(=O)O[C@H]1CCC2[C@@H]3CCC4Nc5oncc5C[C@]4(C)C3CC[C@@]21C (stereo not given in full)", "> 10 µM"],
  ["COC(=O)C1=C(C(=O)Nc2cccnc2Cl)N(c2ccc(OC)cc2[N+](=O)[O-])C(c2ccc(C)cc2)=CC1c1ccc(OC)cc1OC (stereo not given)", "> 85 µM"]
]}

====

tested on: U251 CNS
Labels: yes (active), no (inactive)

{"columns": ["COMPOUND", "CLASS ASSIGNMENT"],
 "data": [
  ["COc1ccc(-n2c(C)cc(-c3ccccc3)c2C)cc1", "no"],
  ["COc1cc(C(=O)N2CCN(c3ncccn3)CC2)c(N)cc1OCc1ccccc1", "no"],
  ["O=C1NC(=O)C(c2cccc([N+](=O)[O-])c2)=C1Nc1cc(Cl)c(O)c(Cl)c1", "no"],
  ["CN(CCO)c1ccc(N2Cc3ccccc3OC3=C2C(=O)c2c(O)ccc(O)c2C3=O)cn1", "yes"],
  ["CCN(Cc1ccccc1C)c1ccc(CO)c(Cl)c1", "no"],
  ["COc1ccc(CCNC(=O)c2ccc(NC3=C(Cl)C(=O)N(Cc4ccccc4)C3=O)cc2)cc1OC", "no"],
  ["O=C(Nc1ccc(F)cc1)c1cc(S(=O)(=O)Nc2nc3ccccc3o2)c(SCc2ccccc2)cc1Cl", "no"],
  ["COc1cc(OC)c(/C=C/c2c3ccccc3cc[n+]2C)c(OC)c1", "no"],
  ["CC1=C(C(=O)Nc2ccc(Cl)c(Cl)c2)C(c2cccc(Oc3ccccc3)c2)NC(=O)N1 (stereo not drawn)", "no"],
  ["O=C1c2ccccc2-c2c1c1ccccc1c(=O)n2CCCCl", "no"],
  ["NC(=O)c1cc(S(=O)(=O)Nc2nnc(-c3ccccc3)c(-c3ccccc3)n2)c(SCc2ccccc2)cc1Cl", "no"],
  ["COc1ncc(-c2ccc3ncnc(Nc4cccc(Cl)c4)c3c2)cc1NS(=O)(=O)C1CC1", "no"],
  ["Cc1[nH]c(/C=C2\\C(=O)Nc3ccccc32)c(C)c1CCC(=O)O", "no"],
  ["O=S(=O)(Nc1ccc(F)cc1F)c1ccc(-c2cnc(C3CC3)o2)cc1", "no"],
  ["CCN1C(=O)N(CC)C2C1NN=c1s/c(=C3\\C(=O)N(CC(C)(C)C)c4ccccc43)c(=O)n12 (stereo not drawn)", "no"],
  ["COc1ccc(O)c(C(=O)c2ccc(C(=O)N[C@H]3CCCNC[C@@H]3NC(=O)c3ccncc3)cc2)c1F", "no"],
  ["O=C1NC(=O)/C(=C\\c2ccccc2)C2=C1CCCC2", "no"],
  ["N#CC1=C(N)Oc2cc(O)ccc2C1c1cccc2ccccc12 (stereo not drawn)", "no"]
]}

====

tested on: SR leukemia; assay: NCI tumour cell line growth inhibition, 48 h
QUANTITY MEASURED: GI50

{"columns": ["COMPOUND", "QUANTITY MEASURED", "RESULT VALUE"],
 "data": [
  ["NC(=O)OCCn1cc(-c2nc(-c3c[nH]c4ncccc34)cs2)c2ccccc21", "GI50", "1.08 µM"],
  ["N#Cc1c(N/N=C/c2ccc(Cl)cc2Cl)nc(N)nc1N1CCCC1", "GI50", "10.7 µM"],
  ["CCOC(=O)c1c(NC(=O)c2cccc(C(F)(F)F)c2)sc2c(CN(C)C)c(O)ccc12", "GI50", "3.16 µM"],
  ["Cc1cc(C)c(/C=C2\\C(=O)Nc3ccc(NC(=O)CCCCCCC(=O)NO)cc32)[nH]1", "GI50", "0.416 µM"],
  ["COc1c[c]([Hg][O]C(C)=O)c(OC)c(NC(=O)CC(C)=O)[c]1[Hg][O]C(C)=O", "GI50", "2.59 µM"],
  ["COc1ncc(-c2ccc3ncnc(Nc4cccc(Cl)c4)c3c2)cc1NS(=O)(=O)C1CC1", "GI50", "> 100 µM"],
  ["CC(C)(S)C(N)C(=O)O (stereo not given)", "GI50", "1840 µM"],
  ["CCN1C(=O)N(CC)C2C1NN=c1s/c(=C3\\C(=O)N(CC(C)(C)C)c4ccccc43)c(=O)n12 (stereo not given)", "GI50", "0.755 µM"],
  ["COc1ccc(-c2ccc(-c3ccc(C(=N)N)s3)s2)cc1", "GI50", "0.208 µM"],
  ["CCN(Cc1ccccc1C)c1ccc(CO)c(Cl)c1", "GI50", "9.29 µM"]
]}

====

system: NCI-H226 lung; test: NCI tumour cell line growth inhibition, 48 h
QUANTITY MEASURED: TGI

{"columns": ["MOLECULE", "QUANTITY MEASURED", "RESULT VALUE"],
 "data": [
  ["O=C(/C=C/c1ccc(OCc2cccc(Cl)c2)cc1)NO", "TGI", "35.6 µM"],
  ["c1ccc2nc3c(nc2c1)sc1ccccc13", "TGI", "66.8 µM"],
  ["Cc1cc(C2CC(O)C(CO)O2)c(F)cc1F (centres undefined)", "TGI", "> 100 µM"],
  ["O=C(O)CC(NC(=O)CP(=O)(O)O)C(=O)O (centres undefined)", "TGI", "7210 µM"],
  ["COc1ccc2c(c1)nc1n2C(c2c(Cl)cccc2Cl)SC1 (centres undefined)", "TGI", "> 100 µM"],
  ["COC(=O)c1c(C#N)[nH]c(-c2ccsc2)c1C(=O)OC", "TGI", "> 100 µM"],
  ["COc1cc(C=O)c(-c2cc(OC)c(OC)cc2C=O)cc1OC", "TGI", "> 100 µM"],
  ["Cc1ccc(-c2n[nH]c(=O)n2/N=C\\c2ccc([N+](=O)[O-])cc2)cc1", "TGI", "> 100 µM"],
  ["Fc1ccc(C(=C2CCN(CCc3ccc4[nH]c(=S)[nH]c4c3)CC2)c2ccc(F)cc2)cc1", "TGI", "52.3 µM"],
  ["CC1COC(C)(C)P(=O)(c2ccccc2)C1 (centres undefined)", "TGI", "> 100 µM"],
  ["CN1CCc2c(sc3ncn(C)c(=N)c23)C1", "TGI", "> 100 µM"],
  ["Cc1cc(S(=O)(=O)O)c(NC(=O)C(=O)Cc2cc(=O)oc3cc(O)ccc23)cc1Cl", "TGI", "> 100 µM"],
  ["NCCSc1nc(-c2ccccc2)c(-c2ccccc2)o1", "TGI", "> 100 µM"],
  ["C/C(=N/NC(=S)Nc1ccc(Cl)cc1)c1cccc(/C(C)=N\\NC(=S)Nc2ccc(Cl)cc2)n1", "TGI", "47.5 µM"],
  ["COc1ccc(OC)c(C(Cc2ccnc3ccccc23)Cc2ccnc3ccccc23)c1", "TGI", "> 10 µM"],
  ["O=S(=O)(Nc1ccc(F)cc1F)c1ccc(-c2cnc(C3CC3)o2)cc1", "TGI", "43.3 µM"],
  ["N#Cc1c(N/N=C/c2ccc(Cl)cc2Cl)nc(N)nc1N1CCCC1", "TGI", "> 100 µM"],
  ["COc1ccc(CC2c3cc(OC)c(OC)cc3CC[N+]2(C)C)cc1OC (centres undefined)", "TGI", "> 100 µM"],
  ["Nc1nc(NCC2(CO)CC2)cc(=O)[nH]1", "TGI", "> 100 µM"],
  ["COc1cc(C(=O)N2CCN(c3ncccn3)CC2)c(N)cc1OCc1ccccc1", "TGI", "> 100 µM"],
  ["COC(=O)C1(C(=O)OC)C/C(C)=C(/C)SCCCS1", "TGI", "> 100 µM"],
  ["S=c1[nH]c(=S)c2nnn(-c3ccccc3)c2[nH]1", "TGI", "> 100 µM"],
  ["CN[C@@H](C)[C@@H](NC)c1ccccc1", "TGI", "> 100 µM"],
  ["O=C(/N=C/c1c(O)c2ccccc2oc1=O)Oc1ccccc1", "TGI", "44.9 µM"]
]}

The origin of these recorded values is PubChem BioAssay (NCI).
